From: patent US20260217708A1

- systemUnderTest: system Xc^− (Homo sapiens, UniProt Q9UPY5)
- Sequence (Q9UPY5 whole entry): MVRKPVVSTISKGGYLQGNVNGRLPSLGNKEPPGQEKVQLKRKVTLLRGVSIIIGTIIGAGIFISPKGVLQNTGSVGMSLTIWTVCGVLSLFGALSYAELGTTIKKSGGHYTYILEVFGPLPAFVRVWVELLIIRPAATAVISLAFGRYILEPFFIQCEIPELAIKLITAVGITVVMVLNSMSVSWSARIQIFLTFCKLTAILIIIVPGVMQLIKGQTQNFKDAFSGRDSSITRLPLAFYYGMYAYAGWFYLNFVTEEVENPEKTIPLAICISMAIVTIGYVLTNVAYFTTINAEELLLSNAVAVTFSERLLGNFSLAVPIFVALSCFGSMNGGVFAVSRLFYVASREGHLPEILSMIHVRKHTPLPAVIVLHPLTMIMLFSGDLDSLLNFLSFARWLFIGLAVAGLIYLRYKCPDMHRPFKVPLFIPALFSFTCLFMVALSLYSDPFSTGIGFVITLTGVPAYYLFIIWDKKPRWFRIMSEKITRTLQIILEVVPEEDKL
- Sequence (P08195 102-630 partner): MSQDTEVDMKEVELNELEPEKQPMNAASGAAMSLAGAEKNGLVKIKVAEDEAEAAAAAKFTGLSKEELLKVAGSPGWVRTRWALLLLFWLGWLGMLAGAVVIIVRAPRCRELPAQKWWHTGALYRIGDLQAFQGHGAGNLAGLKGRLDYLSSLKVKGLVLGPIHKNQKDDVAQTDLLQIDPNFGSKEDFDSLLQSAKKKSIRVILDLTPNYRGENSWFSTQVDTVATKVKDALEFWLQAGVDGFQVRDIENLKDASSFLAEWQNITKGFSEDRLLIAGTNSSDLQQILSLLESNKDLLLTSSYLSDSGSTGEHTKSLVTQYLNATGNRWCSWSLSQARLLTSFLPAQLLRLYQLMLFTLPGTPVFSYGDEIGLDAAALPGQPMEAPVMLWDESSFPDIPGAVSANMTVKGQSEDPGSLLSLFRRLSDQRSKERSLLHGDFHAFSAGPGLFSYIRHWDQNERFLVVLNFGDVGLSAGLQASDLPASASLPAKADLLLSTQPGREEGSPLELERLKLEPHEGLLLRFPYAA
- testSummary: [^14C]L-Cystine uptake assay
- Format: cell-based
- Set-up: endogenous in cells; host or cells: H4 cells
- conditionDetails: H4 cells, sodium-free HEPES buffer, 0.5 μM L-[14C]Cystine and 4.5 μM L-Cystine, 1 hour at 37° C.; read-out: pIC50 [^14C] L-Cystine uptake assay (converted)
measureName: IC50

Cc1cc2c(cn1)-c1cccc(F)c1CC(=O)N2CC(=O)Nc1ccc(C(F)(F)F)cc1; 15.8 to 39.8 nM
CC1C(=O)N(CC(=O)Nc2ccc(C(F)F)cc2)c2cc(N3CC4(CCOC4)C3)nc(F)c2-c2cccnc21 (single isomer, unassigned); < 15.8 nM
Cc1cc2c(cn1)-c1ccnn1C(C)C(=O)N2CC(=O)Nc1ccc(Cl)c(F)c1 (single isomer, unassigned); 39.8 to 100 nM

Attention now turns to another entry.
Problem: Give system Xc^− (Homo sapiens, UniProt Q9UPY5) IC50 for CC1C(=O)N(CC(=O)Nc2ccc(C(F)(F)F)cc2)c2ccnc(F)c2-c2cccnc21 (single isomer, unassigned)
Result: 15.8 to 39.8 nM
